Tested on: LTC4
Test: Antagonism in isolated guinea-pig trachea, Test method (i) (Table 3, given as LTC4 antagonism)
Format: cell-based
Settings: Cavia porcellus, 5 min, test compound 10^-5 g/ml, given as LTC4 antagonisms
Protocol: (i) LTC4 and LTD4 antagonisms in guinea-pig trachea Antagonisms for LTC4 and LTD4 were determined in isolated guinea-pig trachea prepared as spiral strip. Tracheal preparations were suspended under 1 g tension in 10 ml organ baths and they were incubated for 1 hr prior to use. […] LTC4 - and LTD4 -induced contractions were expressed as a percentage of the maximal response to histamine. The antagonism was determined as follows: […]
Below: a set of entries, each annotated with reported inhibition at 10 µg/mL.
// return the numeric value with its unit appended

Use these answered entries as a reference point.
compound: CCCc1cc(C(N)=O)ccc1OCCCNc1cnn(C(C)C)c(=O)c1Cl
reported: 95%

compound: COc1ccc(CCNc2cnn(C(C)(C)C)c(=O)c2Cl)cc1
reported: 60%

compound: CCn1ncc(NCCCOc2ccc(C(=O)O)cc2Cl)c(Cl)c1=O
reported: 13%

According to the records, this compound CCOc1cc(C(=O)OC)ccc1OCCCNc1cnn(C(C)C)c(=O)c1Cl displays inhibition at 10 µg/mL of 83%

Sure, the documented inhibition at 10 µg/mL for CCCc1cc(C(=O)O)ccc1OCCCNc1cnn(CC)c(=O)c1Cl is 82%

In plain terms, CCOc1ccccc1OCC(O)COc1cnn(C(C)C)c(=O)c1Cl (stereo not shown) has a documented inhibition at 10 µg/mL of 54%

For record CCCc1cc(C#N)ccc1OCCCOc1cnn(C(C)C)c(=O)c1Cl the listed inhibition at 10 µg/mL is 60%

Lab note: COc1cccc(OCC(O)COc2cnn(C(C)C)c(=O)c2Cl)c1 (stereo not shown) gave inhibition at 10 µg/mL of 41%

---

tested on: LTD4; assay: LTD4 antagonism in isolated guinea-pig trachea with indomethacin, Test method (ii) (Table 4); format: cell-based; settings: Cavia porcellus, 0.5 h, LTD4 2×10^-8 g/ml, test compound 10^-6 g/ml, 30 min prior, 5 μmol indomethacin
Each entry gets False if its inhibition at 1 µg/mL stays under 90%, and True if its inhibition at 1 µg/mL is 90% or above.

chemical_smiles: CCc1cc(OC)ccc1OCCCNc1cnn(CC)c(=O)c1Br
class: False
--
chemical_smiles: CCCCc1cc(C#N)ccc1OCCCNc1cnn(CC)c(=O)c1Br
class: False
--
chemical_smiles: CCCc1cc(O)ccc1OCCCNc1cnn(C(C)C)c(=O)c1Cl
class: False
--
chemical_smiles: CCCCCc1cc(C(=O)OC)ccc1OCCCNc1cnn(CC)c(=O)c1Br
class: True
--
chemical_smiles: CCCc1cc(C(N)=O)ccc1OCCCNc1cnn(C(C)C)c(=O)c1Cl
class: False

In plain terms: is recorded inhibition at 1 µg/mL at least 90% for CCCCc1cc(C(=O)O)ccc1OCCCNc1cnn(CC)c(=O)c1Cl ?
False

---

tested on: LTC4; assay: Antagonism in isolated guinea-pig trachea, Test method (i) (Table 3, given as LTC4 antagonism); format: cell-based; settings: Cavia porcellus, 5 min, test compound 10^-5 g/ml, given as LTC4 antagonisms
reported_metric: inhibition at 10 µg/mL (%)
All answers are understood in %, so give the number only.

compound: CCCc1c(OCCCOc2cnn(C(C)(C)C)c(=O)c2Cl)ccc(C(C)=O)c1O
inhibition at 10 µg/mL / %: 40
--
compound: CCCc1cc(C(=O)O)ccc1OCCCOc1cnn(C(C)C)c(=O)c1Cl
inhibition at 10 µg/mL / %: 59
--
compound: COc1cccc(SCCCNc2cnn(C(C)(C)C)c(=O)c2Cl)c1
inhibition at 10 µg/mL / %: 40
--
compound: CCCc1cc(C(=O)O)ccc1OCC(O)CNc1cnn(C(C)C)c(=O)c1Cl (centres unmarked)
inhibition at 10 µg/mL / %: 14
--
compound: CCCc1cc(C#N)ccc1OCC(COc1cnn(C(C)C)c(=O)c1Cl)OC (centres unmarked)
inhibition at 10 µg/mL / %: 79

Next:
Record CCn1ncc(NCCCOC(=O)c2ccc(Cl)cc2)c(Cl)c1=O / LTC4, inhibition at 10 µg/mL recorded as 45
